Protocol notes: Photometric activity determination of 7β-HSDH and mutants (decrease in absorbance at 340 nm, DHCA reduction with NADPH)
Format: biochemical
Measurement conditions: Table 4, variants modified at position 64; 10 mM DHCA, NADPH, KPi pH 8.0
Reported endpoint: Volumetric activity (U/ml)
The answer is to be given in U/ml; state only the numeric part.

Problem: Reported Volumetric activity, molecule 7β-HSDH [R64A]: 7β-HSDH mutant, R in position 64 replaced by A (protein, UniProt A4ECA9 1-263, looked up, variant R64A) 7beta-hydroxysteroid …: MNLREKYGEWGLILGATEGVGKAFCEKIAAGGMNVVMVGRREEKLNVLAGEIRETYGVETKVVAADFSQPGAAETVFAATEGLDMGFMSYVACLHSFGKIQDTPWEKHEAMINVNVVTFLKCFHHYMRIFAAQDRGAVINVSSMTGISSSPWNGQYGAGKAFILKMTEAVACECEGTGVDVEVITLGTTLTPSLLSNLPGGPQGEAVMKIALTPEECVDEAFEKLGKELSVIAGQRNKDSVHDWKANHTEDEYIRYMGSFYRD : ____
Result: 273
